pKi: −log10 of the molar value.
Measured pKi on hERG cardiac potassium channel (Homo sapiens, UniProt Q12809) follows.
Sequence (Q12809 whole entry): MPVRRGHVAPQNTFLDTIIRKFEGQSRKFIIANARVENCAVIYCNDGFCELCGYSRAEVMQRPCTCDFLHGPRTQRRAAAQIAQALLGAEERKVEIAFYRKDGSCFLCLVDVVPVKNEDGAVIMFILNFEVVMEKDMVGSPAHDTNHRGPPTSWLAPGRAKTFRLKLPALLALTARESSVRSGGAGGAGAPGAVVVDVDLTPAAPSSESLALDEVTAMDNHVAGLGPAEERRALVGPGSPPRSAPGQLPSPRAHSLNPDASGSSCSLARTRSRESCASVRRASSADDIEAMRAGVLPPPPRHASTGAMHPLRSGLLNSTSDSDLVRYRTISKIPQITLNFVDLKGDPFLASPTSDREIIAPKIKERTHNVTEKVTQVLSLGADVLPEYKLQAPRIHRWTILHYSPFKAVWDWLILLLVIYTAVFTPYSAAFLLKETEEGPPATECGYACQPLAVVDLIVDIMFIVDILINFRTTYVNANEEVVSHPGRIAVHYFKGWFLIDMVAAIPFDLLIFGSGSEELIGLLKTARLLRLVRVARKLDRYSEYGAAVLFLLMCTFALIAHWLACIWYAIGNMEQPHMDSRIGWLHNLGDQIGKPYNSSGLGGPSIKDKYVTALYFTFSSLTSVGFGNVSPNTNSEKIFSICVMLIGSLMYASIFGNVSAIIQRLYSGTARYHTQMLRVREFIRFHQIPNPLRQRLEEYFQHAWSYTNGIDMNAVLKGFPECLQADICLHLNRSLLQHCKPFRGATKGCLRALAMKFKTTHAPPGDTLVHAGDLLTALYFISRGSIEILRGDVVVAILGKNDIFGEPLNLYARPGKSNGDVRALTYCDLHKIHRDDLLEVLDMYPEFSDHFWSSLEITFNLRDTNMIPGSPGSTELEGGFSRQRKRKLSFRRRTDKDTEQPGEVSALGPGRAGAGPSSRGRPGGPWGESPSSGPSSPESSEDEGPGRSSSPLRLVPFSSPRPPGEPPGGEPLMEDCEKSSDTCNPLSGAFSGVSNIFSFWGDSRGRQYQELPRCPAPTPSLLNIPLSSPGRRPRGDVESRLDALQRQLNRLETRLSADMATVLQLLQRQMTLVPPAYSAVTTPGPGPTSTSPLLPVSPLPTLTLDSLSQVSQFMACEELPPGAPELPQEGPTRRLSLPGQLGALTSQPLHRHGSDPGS
Observation Type: pKi

1. COc1c(Cl)cc(C(=O)N2CCC3(CCN(C)CC3)CC2)cc1Cl
4.72
2. COc1ccc(C(=O)N2CCC3(CCN(C)CC3)CC2)cc1Cl
4.80
3. COc1ccc(C(=O)N2CCC3(CCN(C)CC3)CC2)cc1F
4.89
4. COc1ccc(NC(=O)N2CCC3(CCN(C)CC3)CC2)cc1F
5.07

* * *

Tested Target: human α4β2 NNR (Homo sapiens, UniProt P17787+P43681)
Sequence (P43681 29-627 limits assumed): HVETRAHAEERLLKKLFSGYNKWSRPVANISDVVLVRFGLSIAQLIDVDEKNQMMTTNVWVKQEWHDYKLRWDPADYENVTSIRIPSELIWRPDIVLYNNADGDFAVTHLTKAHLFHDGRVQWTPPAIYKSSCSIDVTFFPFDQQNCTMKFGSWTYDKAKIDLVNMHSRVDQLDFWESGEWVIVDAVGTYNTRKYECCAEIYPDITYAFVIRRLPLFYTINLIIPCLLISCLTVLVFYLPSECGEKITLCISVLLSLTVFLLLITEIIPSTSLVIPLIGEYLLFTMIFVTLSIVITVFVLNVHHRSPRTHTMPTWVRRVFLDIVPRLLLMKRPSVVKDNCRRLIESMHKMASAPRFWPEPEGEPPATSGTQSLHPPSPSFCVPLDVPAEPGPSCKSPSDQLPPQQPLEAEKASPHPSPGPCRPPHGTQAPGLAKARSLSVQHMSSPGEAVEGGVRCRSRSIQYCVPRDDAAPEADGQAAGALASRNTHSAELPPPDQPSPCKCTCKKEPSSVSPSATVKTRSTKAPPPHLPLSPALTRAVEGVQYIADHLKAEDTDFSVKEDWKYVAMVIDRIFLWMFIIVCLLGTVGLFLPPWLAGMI
Sequence (P17787 26-502): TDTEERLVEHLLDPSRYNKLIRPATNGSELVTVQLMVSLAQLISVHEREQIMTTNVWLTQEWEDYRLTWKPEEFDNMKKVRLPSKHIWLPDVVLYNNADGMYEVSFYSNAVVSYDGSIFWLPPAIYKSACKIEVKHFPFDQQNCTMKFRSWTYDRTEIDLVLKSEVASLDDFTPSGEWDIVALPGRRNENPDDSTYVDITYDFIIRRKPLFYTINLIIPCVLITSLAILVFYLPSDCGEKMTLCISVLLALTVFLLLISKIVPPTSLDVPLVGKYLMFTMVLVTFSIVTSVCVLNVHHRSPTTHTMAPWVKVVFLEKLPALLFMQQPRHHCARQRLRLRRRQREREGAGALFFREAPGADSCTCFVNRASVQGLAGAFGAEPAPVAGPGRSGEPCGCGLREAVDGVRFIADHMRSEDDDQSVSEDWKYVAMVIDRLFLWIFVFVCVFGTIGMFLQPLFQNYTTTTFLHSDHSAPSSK
Protocol Details: Calcium flux assay (FLIPR), potentiation of submaximal nicotine response in HEK 293 cells expressing α4β2
Details: HEK 293 cells expressing human α4β2; potentiation of submaximal (EC20-30%) agonist such as nicotine; read-out: EC50 (α4β2 PAM)
pEC50: −log10 of the molar value.
Overview of recorded pEC50 for various molecules
Observation Type: pEC50

1) COc1c(Cl)cc(C(=O)N2CCC3(CCN(C)CC3)CC2)cc1Cl
7.40
2) COc1ccc(NC(=O)N2CCC3(CCN(C)CC3)CC2)cc1Cl
6.21
3) COc1cc(OC)c(NC(=O)N2CCC3(CCN(C)CC3)CC2)cc1Cl
5.43
4) COc1cc(C(=O)N2CCC3(CCN(C)CC3)CC2)ccc1F
6.01
5) COc1ccc(NC(=O)N2CCC3(CCN(C)CC3)CC2)cc1F
5.79
6) COc1ccc(CC(=O)N2CCC3(CCN(C)CC3)CC2)cc1F
5.77
7) COc1ccc(C(=O)N2CCC3(CCN(C)CC3)CC2)cc1F
5.37
8) COc1cc(C(=O)N2CCC3(CCN(C)CC3)CC2)cc(Cl)c1OC
6.44
9) COc1ccc(C(=O)N2CCC3(CCN(C)CC3)CC2)cc1Cl
6.80

Source of measurements: patent US8268853B2
